The following binders are listed with their measured relative MPF (% of chimeric FMC63) values.
# testTarget: T1, human CD19 (human, UniProt P15391 20-556)
# T1 construct: CD19 as expressed on Raji, NALM-6 and SU-DHL-6 cells; also called CD19 antigen; B-cell surface antigen B4
# T1 sequence: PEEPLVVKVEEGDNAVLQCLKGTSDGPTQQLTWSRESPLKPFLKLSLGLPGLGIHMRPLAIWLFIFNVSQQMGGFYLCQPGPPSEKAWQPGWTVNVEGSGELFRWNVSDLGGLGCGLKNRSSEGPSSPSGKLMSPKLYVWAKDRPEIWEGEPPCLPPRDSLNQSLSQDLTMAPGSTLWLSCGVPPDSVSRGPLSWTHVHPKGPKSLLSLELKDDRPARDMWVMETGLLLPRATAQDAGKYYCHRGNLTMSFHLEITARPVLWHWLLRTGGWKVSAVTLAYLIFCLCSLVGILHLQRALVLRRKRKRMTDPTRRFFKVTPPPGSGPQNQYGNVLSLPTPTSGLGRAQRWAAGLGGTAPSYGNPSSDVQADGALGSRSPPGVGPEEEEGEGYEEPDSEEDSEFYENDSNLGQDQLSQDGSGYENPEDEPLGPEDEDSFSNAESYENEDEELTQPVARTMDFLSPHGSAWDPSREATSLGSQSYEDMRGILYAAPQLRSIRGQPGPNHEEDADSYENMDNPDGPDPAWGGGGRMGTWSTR
# experimentDescription: flow cytometry, Raji cells, MPF vs chimeric FMC63

# binder, relative MPF (% of chimeric FMC63)
records = [
    ("VH16-L78V/VL43-P44V (antibody, human IgG1, name in Kabat numbering, V domains shown, substitutions in Kabat numbering) VH: QVQLVQSGGGVVQPGRSLRLSCAASGVSLPDYGVSWVRQAPGKGLEWVAVIWGSETTYYNSALKSRFTISRDNSKNTVYLQMNSLRAEDTAVYYCARHYYYGGSYAMDYWGQGTLVTVSS VL: DIVMTQTPSSLSASVGDRVTITCRASQDISKYLNWYQQKPGKAVKLLIYHTSRLHSGVPSRFSGSGSGTDFTLTISSLQPEDFATYYCQQGNTLPYTFGPGTKVDIKR", "25.9%"),
    ("VH16-R71K/VL43-P44V (antibody, human IgG1, name in Kabat numbering, V domains shown, substitutions in Kabat numbering) VH: QVQLVQSGGGVVQPGRSLRLSCAASGVSLPDYGVSWVRQAPGKGLEWVAVIWGSETTYYNSALKSRFTISKDNSKNTLYLQMNSLRAEDTAVYYCARHYYYGGSYAMDYWGQGTLVTVSS VL: DIVMTQTPSSLSASVGDRVTITCRASQDISKYLNWYQQKPGKAVKLLIYHTSRLHSGVPSRFSGSGSGTDFTLTISSLQPEDFATYYCQQGNTLPYTFGPGTKVDIKR", "6.93%"),
    ("VH16-G42R/VL43-Y87F (antibody, human IgG1, name in Kabat numbering, V domains shown, substitutions in Kabat numbering) VH: QVQLVQSGGGVVQPGRSLRLSCAASGVSLPDYGVSWVRQAPRKGLEWVAVIWGSETTYYNSALKSRFTISRDNSKNTLYLQMNSLRAEDTAVYYCARHYYYGGSYAMDYWGQGTLVTVSS VL: DIVMTQTPSSLSASVGDRVTITCRASQDISKYLNWYQQKPGKAPKLLIYHTSRLHSGVPSRFSGSGSGTDFTLTISSLQPEDFATYFCQQGNTLPYTFGPGTKVDIKR", "8.43%"),
]
